- Test: Selectivity index, ratio of CC50 for human HepG2 cells to IC50 for chloroquine, pyrimethamine and proguanil-resistant Plasmodium falciparum K1
- Assay type: functional
As shown below, each of these compounds has a reported Ratio CC50/IC50 value.

Please review the entries below; each comes with its answer.
{"columns": ["Compound", "Observable", "Endpoint Value"],
 "data": [
  ["CC1(Cc2ccccc2)CC(S(=O)(=O)c2ccccc2C(F)(F)F)=C(c2ccc(/C(N)=N\\O)cc2)O1 (stereo unspecified)", "Ratio CC50/IC50", "<5.7"],
  ["COc1cc(-c2ccc(C3(C)CC(S(=O)(=O)c4ccc(F)cc4)=C(c4ccc(/C(N)=N\\O)cc4)O3)cc2)cc(OC)c1OC (stereo unspecified)", "Ratio CC50/IC50", ">9.9"],
  ["CC1(Cc2ccccc2)CC(S(=O)(=O)c2c(F)cccc2F)=C(c2ccc(/C(N)=N\\O)cc2)O1 (stereo unspecified)", "Ratio CC50/IC50", 33.2]
]}

Asked: Given the compound CC1(c2ccc(-c3ccccc3C#N)cc2)CC(S(=O)(=O)c2ccc(F)cc2)=C(c2ccc(/C(N)=N\O)cc2)O1 (stereo unspecified) , what is its reported Ratio CC50/IC50?
Given back: <5.8

Asked: Given the compound CCC1(c2ccccc2OC)CC(S(=O)(=O)c2ccc(F)cc2)=C(c2ccc(/C(N)=N\O)cc2)O1 (stereo unspecified) , what is its reported Ratio CC50/IC50?
Given back: 3.4

Asked: Given the compound CC1(Cc2ccccc2)CC(S(=O)(=O)c2ccccc2F)=C(c2ccc(/C(N)=N\O)cc2)O1 (stereo unspecified) , what is its reported Ratio CC50/IC50?
Given back: <6.2

###

- Test: Cytotoxicity against human HepG2 cells incubated for 72 hrs by MTT assay
- Format: cell-based
As shown below, each of these molecules has a reported CC50 at 72 h value.
Number in µM, nothing else.

{"columns": ["Molecule", "Endpoint Unit", "CC50 at 72 h"],
 "data": [
  ["CC1(Cc2ccccc2)CC(S(=O)(=O)c2cccc(F)c2)=C(c2ccc(/C(N)=N\\O)cc2)O1 (centres undefined)", "µM", 59.6]
]}

Now examine the next entry.
Asked: Given the molecule CC1(c2ccc(-c3ccccc3C#N)cc2)CC(S(=O)(=O)c2ccc(F)cc2)=C(c2ccc(/C(N)=N\O)cc2)O1 (centres undefined) , what is its reported CC50 at 72 h?
Given back: 58.3
